biological target: BaF3 BRAF-KIAA1549 fusion cells (Homo sapiens, UniProt P15056); construct: The BRAF-KIAA1549 fusion mutant was subcloned into pMXs-IRES-Blasticidin (RTV-016, Cell Biolabs, San Diego, CA); fused on or other part: Q9HCM3 (UPF0606 protein KIAA1549); test: BaF3 BRAF-KIAA1549 fusion cell proliferation assay (CellTiterGlo); format: cell-based; conditions: 96 hours incubation, potency code
Sequence (P15056 whole entry, change not shown, the tested form may be a part): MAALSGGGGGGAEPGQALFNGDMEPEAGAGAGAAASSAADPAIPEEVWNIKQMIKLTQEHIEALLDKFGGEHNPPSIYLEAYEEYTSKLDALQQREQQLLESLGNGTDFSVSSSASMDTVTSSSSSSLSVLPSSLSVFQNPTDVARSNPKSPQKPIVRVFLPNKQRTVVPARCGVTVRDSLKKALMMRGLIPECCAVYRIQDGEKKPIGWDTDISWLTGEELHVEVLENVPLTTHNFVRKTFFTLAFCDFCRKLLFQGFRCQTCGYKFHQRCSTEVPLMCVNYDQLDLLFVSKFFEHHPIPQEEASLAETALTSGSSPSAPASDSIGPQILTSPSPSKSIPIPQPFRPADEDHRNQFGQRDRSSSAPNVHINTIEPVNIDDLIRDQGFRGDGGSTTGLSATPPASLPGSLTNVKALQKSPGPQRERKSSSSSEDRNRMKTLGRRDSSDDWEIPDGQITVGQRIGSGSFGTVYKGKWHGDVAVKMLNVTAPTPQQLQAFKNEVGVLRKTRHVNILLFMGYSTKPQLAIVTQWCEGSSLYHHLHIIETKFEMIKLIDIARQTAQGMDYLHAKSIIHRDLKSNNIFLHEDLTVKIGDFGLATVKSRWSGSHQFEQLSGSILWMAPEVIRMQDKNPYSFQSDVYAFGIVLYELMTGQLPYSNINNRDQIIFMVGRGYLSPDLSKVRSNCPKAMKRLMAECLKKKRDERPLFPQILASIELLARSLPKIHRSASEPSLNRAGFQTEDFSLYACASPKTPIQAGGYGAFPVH
Listed here: items and their measured GI50.

Request: Please supply the value of reported GI50 for the item Cc1ccc(NC(=O)c2ccnc(C3CC3)c2)cc1Nc1ncccc1-c1ncnc2[nH]cnc12
Response: < 20 nM

----------
biological target: BaF3 BRAF-KIAA1549 fusion cells (Homo sapiens); construct: The BRAF-KIAA1549 fusion mutant was subcloned into pMXs-IRES-Blasticidin (RTV-016, Cell Biolabs, San Diego, CA); fused on or other part: Q9HCM3 (UPF0606 protein KIAA1549); test: BaF3 BRAF-KIAA1549 fusion cell proliferation assay (CellTiterGlo); assay type: cell-based; details: 96 hours incubation, potency code
READOUT: GI50

As a guide, the following entries are already answered.
{"COMPOUND": "Cc1nc2c(-c3cccnc3Nc3cc(NC(=O)c4cc(C(F)(F)F)c(F)cn4)ccc3C)ncnc2[nH]1", "READOUT": "GI50", "OBSERVED VALUE": "< 20 nM"}
{"COMPOUND": "Cc1ccc(NC(=O)C23CC(C(F)(F)F)(CO2)C3)cc1Nc1ncccc1-c1ncnc2[nH]cnc12", "READOUT": "GI50", "OBSERVED VALUE": "100 to 500 nM"}
{"COMPOUND": "Cc1ccc(NC(=O)c2cc(C(F)(F)F)c(C)cn2)cc1Nc1ncccc1-c1ncnc2[nH]cnc12", "READOUT": "GI50", "OBSERVED VALUE": "< 20 nM"}

Here is another compound to look at.
Request: Please supply the value of reported GI50 for the item Cc1ccc(NC(=O)c2ccc(C)c(C#N)n2)cc1Nc1ncccc1-c1ncnc2[nH]cnc12
Response: ≥ 500 nM

----------
target: BaF3 BRAF-KIAA1549 fusion cells (Homo sapiens); construct: The BRAF-KIAA1549 fusion mutant was subcloned into pMXs-IRES-Blasticidin (RTV-016, Cell Biolabs, San Diego, CA); fused on or other part: Q9HCM3 (UPF0606 protein KIAA1549); experiment: BaF3 BRAF-KIAA1549 fusion cell proliferation assay (CellTiterGlo); format: cell-based; details: 96 hours incubation, potency code
READOUT: GI50

As a guide, the following entries are already answered.
{"MOLECULE": "Cc1ccc(NC(=O)c2ccc(C#N)cc2)cc1Nc1ncccc1-c1ncnc2[nH]cnc12", "TEST SYSTEM": "BaF3 BRAF-KIAA1549 fusion cells (Homo sapiens)", "GI50": "100 to 500 nM"}
{"MOLECULE": "Cc1ccc(NC(=O)c2cc(C(F)(F)F)ccn2)cc1Nc1ncccc1-c1ncnc2[nH]c(OCCN(C)C)nc12", "TEST SYSTEM": "BaF3 BRAF-KIAA1549 fusion cells (Homo sapiens)", "GI50": "20 to 100 nM"}
{"MOLECULE": "Cc1ccc(NC(=O)CN2CCCCCC2)cc1Nc1ncccc1-c1ncnc2[nH]cnc12", "TEST SYSTEM": "BaF3 BRAF-KIAA1549 fusion cells (Homo sapiens)", "GI50": "20 to 100 nM"}
{"MOLECULE": "N#Cc1cc(C(=O)Nc2ccc(F)c(Nc3ncccc3-c3ncnc4[nH]cnc34)c2)ccc1Cl", "TEST SYSTEM": "BaF3 BRAF-KIAA1549 fusion cells (Homo sapiens)", "GI50": "20 to 100 nM"}
{"MOLECULE": "Cc1ccc(NC(=O)CN2CCC[C@@H](C(F)(F)F)C2)cc1Nc1ncccc1-c1ncnc2[nH]cnc12", "TEST SYSTEM": "BaF3 BRAF-KIAA1549 fusion cells (Homo sapiens)", "GI50": "< 20 nM"}

Request: For BaF3 BRAF-KIAA1549 fusion cells (Homo sapiens), give GI50 of the listed molecule: Cc1ccc(C(=O)Nc2cc(C(C)(C)C)nn2C2CC2)cc1Nc1ncccc1-c1ncnc2[nH]cnc12
Response: 100 to 500 nM

Request: For BaF3 BRAF-KIAA1549 fusion cells (Homo sapiens), give GI50 of the listed molecule: CCc1ccc(NC(=O)c2cc(C(F)(F)F)ccn2)cc1Nc1ncccc1-c1ncnc2[nH]cnc12
Response: 20 to 100 nM
